Entries and their pKi
# Test Target: σ1 receptor (Cavia porcellus, UniProt Q60492)
# Construct: The thawed membrane preparation of guinea pig brain cortex; tissue Harlan-Winkelmann, Borchen, Germany; host or cells: guinea pig brain (cortex) membrane homogenate
# Sequence (Q60492 whole entry): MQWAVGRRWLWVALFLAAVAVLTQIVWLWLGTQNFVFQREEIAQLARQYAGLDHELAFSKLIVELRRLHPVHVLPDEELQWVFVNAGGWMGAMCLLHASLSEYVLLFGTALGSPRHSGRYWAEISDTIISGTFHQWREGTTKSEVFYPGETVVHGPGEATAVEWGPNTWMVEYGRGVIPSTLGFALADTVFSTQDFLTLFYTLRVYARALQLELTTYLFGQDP
# Measurement Description: σ1 receptor radioligand binding assay ([3H]-(+)-pentazocine, guinea pig brain homogenate)
# Condition Label: σ1 affinity K i±SEM (n=3), guinea pig brain, [3H]-(+)-pentazocine; piperidines tested as cis/trans mixtures
pKi here: minus log base 10 of the concentration, concentration in moles per litre.

The cases that follow already have their pKi on record.
- Compound: "Cc1ccc(S(=O)(=O)N2CCC(CCNCc3ccccc3)CC2c2ccccc2)cc1 (stereo not drawn) [13a]"
  Assay Value: 7.24
- Compound: "CCN1CC[C@H](CCNCCCc2ccccc2)C[C@@H]1c1ccccc1 [19b]"
  Assay Value: 5.62
- Compound: "Cc1ccc(S(=O)(=O)N2CCC(CCNCCCc3ccccc3)CC2c2ccccc2)cc1 (stereo not drawn) [13b]"
  Assay Value: 6.54

# input compound: CN1CC[C@H](CCNCCCc2ccccc2)C[C@@H]1c1ccccc1 [19a] ; wanted: its pKi
7.30

Item: CCN1CCC(CCNCc2ccccc2)CC1c1ccccc1 (stereo not drawn) [18b]
6.89

Another compound: c1ccc(CCCNCCC2CCNC(c3ccccc3)C2)cc1 (stereo not drawn)
6.07

// query: CN1CCC(CCNCC2CCCCC2)CC1c1ccccc1 (stereo not drawn) [20a]
7.80

###

# Test system: androgen negative human prostate cancer cells DU145
# Measurement Description: DU145 cell growth inhibition, sulforhodamine B staining, 72 h
# Assay type: cell-based
# Condition Label: Homo sapiens, DU-145; 72 h incubation, n=3; read-out: cytotoxicity (DU145) IC 50
Measured Attribute: pIC50
By convention, pIC50 is the negative base-10 log of a molar concentration.

Worked examples follow.
- Compound: "CN(CCC1CCN(C)C(c2ccccc2)C1)Cc1ccccc1 (stereo not drawn) [21a]"
  pIC50: 5.26
- Compound: "CN1CCC(CCNCC2CCCCC2)CC1c1ccccc1 (stereo not drawn) [20a]"
  pIC50: 5.31

Now, please, on to the next compound.
Dear colleague, I am looking for the recorded pIC50 of the following compound: CN1CCC(CCN2CCN(c3ccccc3)CC2)CC1c1ccccc1 (stereo not drawn) [22a]
5.40

###

# Measurement Description: logD7.4 by micro shake flask method (n-octanol / MOPS buffer pH 7.4, MS)
# Assay type: physicochemical
# Condition Label: read-out: logD7.4 (exp., n=3)
This section presents compounds with their documented logD values.

- Compound: "c1ccc(CNCCC2CCNC(c3ccccc3)C2)cc1 (centres unmarked) [4a]"
  logD: -0.79

# input for lookup
Using the record for c1ccc(CNCCC2CCOC(c3ccccc3)O2)cc1 (centres unmarked) [compound 1] , report its logD.
1.36

###

# Measurement Description: logD7.4 by micro shake flask method (n-octanol / MOPS buffer pH 7.4, MS)
# Assay type: physicochemical
# Condition Label: read-out: logD7.4 (exp., n=3)
Measured Attribute: logD
Write the number on its own, no unit after it.

- Molecule: "c1ccc(CNCCC2CCCC(c3ccccc3)O2)cc1 (stereo not drawn) [compound 2]"
  logD: 2.52
- Molecule: "CN1CCC(CCNCc2ccccc2)CC1c1ccccc1 (stereo not drawn) [18a]"
  logD: 0.52

So what's the measured logD for this one? c1ccc(CNCCC2CCCC(c3ccccc3)C2)cc1 (stereo not drawn) [compound 3]
3.25

Where do these numbers come from? They come from paper PMC9303367.
